Below: a set of entries, each annotated with reported IC50.
- methodDescription: Cytotoxicity against human SKBR3 cells by Alamar Blue assay
- Type: functional, cell-based
- cond: SK-BR-3
Answer in µM, number only, no unit symbol.

Example entries and their recorded answers appear below.
C#Cc1cccc(Nc2ncnc3ccc(OCc4ccc(C(=O)Nc5ccccc5N)cc4)cc23)c1 : 3.4
C#Cc1cccc(Nc2ncnc3ccc(S(=O)(=O)n4ccc(/C=C/C(=O)NO)c4)cc23)c1 : 0.19
Nc1ccccc1NC(=O)c1ccc(COc2ccc3ncnc(Nc4cccc(Br)c4)c3c2)cc1 : 5.1
C#Cc1cccc(Nc2ncnc3ccc(NC(=O)c4ccc(C(=O)Nc5ccccc5N)nc4)cc23)c1 : 11

State its IC50: "C#Cc1cccc(Nc2ncnc3cc(NC(=O)c4ccc(C(=O)Nc5ccccc5N)s4)ccc23)c1" 33

State its IC50: "C#Cc1cccc(Nc2ncnc3cc(NC(=O)c4ccc(C(=O)Nc5ccccc5N)cc4)ccc23)c1" 39

State its IC50: "C#Cc1cccc(Nc2ncnc3ccc(S(=O)(=O)n4ccc(/C=C/C(=O)Nc5ccccc5N)c4)cc23)c1" 27

State its IC50: "C#Cc1cccc(Nc2ncnc3cc(OCCOC)c(OCCOC)cc23)c1" 15

* * *

Below: a set of entries, each annotated with reported IC50.
- testedSystem: Histone deacetylase 3 (Homo sapiens, UniProt O15379)
- Sequence (O15379 whole entry): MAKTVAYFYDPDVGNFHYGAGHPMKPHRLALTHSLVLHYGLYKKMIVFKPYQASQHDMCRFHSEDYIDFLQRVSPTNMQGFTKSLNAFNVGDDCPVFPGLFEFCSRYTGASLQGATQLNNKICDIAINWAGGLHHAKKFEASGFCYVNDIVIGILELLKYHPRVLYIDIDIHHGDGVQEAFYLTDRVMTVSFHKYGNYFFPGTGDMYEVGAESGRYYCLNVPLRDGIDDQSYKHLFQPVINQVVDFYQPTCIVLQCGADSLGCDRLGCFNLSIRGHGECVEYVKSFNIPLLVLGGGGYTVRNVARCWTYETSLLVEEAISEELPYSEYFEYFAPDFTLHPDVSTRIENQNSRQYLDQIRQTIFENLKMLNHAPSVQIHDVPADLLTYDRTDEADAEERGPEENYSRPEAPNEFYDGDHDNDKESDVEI
- methodDescription: Inhibition of human recombinant HDAC3 expressed in Sf21 insect cells using Ac-NH-GGK(Ac)-AMC as substrate after 180 mins by fluorescence assay
Answer in nM, number only, no unit symbol.

Example entries and their recorded answers appear below.
C#Cc1cccc(Nc2ncnc3cc(NC(=O)c4ccc(C(=O)Nc5ccccc5N)cc4)ccc23)c1 : 500
C#Cc1cccc(Nc2ncnc3ccc(S(=O)(=O)n4ccc(/C=C/C(=O)Nc5ccccc5N)c4)cc23)c1 : 840

From here, focus on the item given below.
State its IC50: "Nc1ccccc1NC(=O)c1ccc(COc2ccc3ncnc(Nc4cccc(Br)c4)c3c2)cc1" 510

* * *

- testedSystem: Histone deacetylase
- methodDescription: Inhibition of HDAC in human HeLa cell nuclear extracts using Ac-NH-GGK(Ac)-AMC as substrate after 180 mins by fluorescence assay
- Assay type: protein assay
Below: a set of entries, each annotated with reported IC50.
Answer in µM, number only, no unit symbol.

C#Cc1cccc(Nc2ncnc3cc(NC(=O)c4ccc(C(=O)Nc5ccccc5N)cc4)ccc23)c1 : 0.2
C#Cc1cccc(Nc2ncnc3ccc(OCc4ccc(C(=O)Nc5ccccc5N)cc4)cc23)c1 : 0.2
C#Cc1cccc(Nc2ncnc3cc(NC(=O)c4ccc(C(=O)Nc5ccccc5N)s4)ccc23)c1 : 0.38

Specify IC50 for "Nc1ccccc1NC(=O)c1ccc(COc2ccc3ncnc(Nc4cccc(Br)c4)c3c2)cc1" , system Histone deacetylase. 0.25

Specify IC50 for "C#Cc1cccc(Nc2ncnc3ccc(S(=O)(=O)n4ccc(/C=C/C(=O)Nc5ccccc5N)c4)cc23)c1" , system Histone deacetylase. 7.2

* * *

- testedSystem: Histone deacetylase 1 (Homo sapiens, UniProt Q13547)
- Sequence (Q13547 whole entry): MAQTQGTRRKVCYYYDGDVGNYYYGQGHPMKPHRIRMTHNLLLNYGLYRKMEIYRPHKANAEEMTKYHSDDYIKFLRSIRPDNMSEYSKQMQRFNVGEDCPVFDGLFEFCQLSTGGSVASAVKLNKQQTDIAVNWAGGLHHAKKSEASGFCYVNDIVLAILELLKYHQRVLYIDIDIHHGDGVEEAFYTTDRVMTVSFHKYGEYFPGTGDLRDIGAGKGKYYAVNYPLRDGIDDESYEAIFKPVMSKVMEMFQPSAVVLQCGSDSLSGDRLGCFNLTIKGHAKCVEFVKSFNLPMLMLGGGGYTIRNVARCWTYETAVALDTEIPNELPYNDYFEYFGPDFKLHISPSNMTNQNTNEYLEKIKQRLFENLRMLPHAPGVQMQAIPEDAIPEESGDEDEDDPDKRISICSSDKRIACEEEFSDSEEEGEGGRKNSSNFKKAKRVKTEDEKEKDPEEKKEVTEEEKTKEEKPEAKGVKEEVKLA
- methodDescription: Inhibition of human recombinant HDAC1 expressed in human HEK293 cells using Ac-NH-GGK(Ac)-AMC as substrate after 180 mins by fluorescence assay
Below: a set of entries, each annotated with reported pIC50.
Expect pIC50 as a plain number equal to -log10 of the molar concentration.

Example entries and their recorded answers appear below.
C#Cc1cccc(Nc2ncnc3ccc(OCc4ccc(C(=O)Nc5ccccc5N)cc4)cc23)c1 : 7.39
C#Cc1cccc(Nc2ncnc3ccc(NC(=O)c4ccc(C(=O)Nc5ccccc5N)cc4)cc23)c1 : 4.98
C#Cc1cccc(Nc2ncnc3ccc(S(=O)(=O)n4ccc(/C=C/C(=O)Nc5ccccc5N)c4)cc23)c1 : 7.04

From here, focus on the item given below.
State its pIC50: "C#Cc1cccc(Nc2ncnc3cc(NC(=O)c4ccc(C(=O)Nc5ccccc5N)cc4)ccc23)c1" 6.10
